Biological target: UniProt Q8TEK3
Assay: Binding affinity to recombinant human His6-SUMO tagged DOT1L (1 to 416 residues) expressed in Escherichia coli BL21(DE3) by surface plasmon resonance method
Sequence (Q8TEK3 whole entry, the tested form may be a part): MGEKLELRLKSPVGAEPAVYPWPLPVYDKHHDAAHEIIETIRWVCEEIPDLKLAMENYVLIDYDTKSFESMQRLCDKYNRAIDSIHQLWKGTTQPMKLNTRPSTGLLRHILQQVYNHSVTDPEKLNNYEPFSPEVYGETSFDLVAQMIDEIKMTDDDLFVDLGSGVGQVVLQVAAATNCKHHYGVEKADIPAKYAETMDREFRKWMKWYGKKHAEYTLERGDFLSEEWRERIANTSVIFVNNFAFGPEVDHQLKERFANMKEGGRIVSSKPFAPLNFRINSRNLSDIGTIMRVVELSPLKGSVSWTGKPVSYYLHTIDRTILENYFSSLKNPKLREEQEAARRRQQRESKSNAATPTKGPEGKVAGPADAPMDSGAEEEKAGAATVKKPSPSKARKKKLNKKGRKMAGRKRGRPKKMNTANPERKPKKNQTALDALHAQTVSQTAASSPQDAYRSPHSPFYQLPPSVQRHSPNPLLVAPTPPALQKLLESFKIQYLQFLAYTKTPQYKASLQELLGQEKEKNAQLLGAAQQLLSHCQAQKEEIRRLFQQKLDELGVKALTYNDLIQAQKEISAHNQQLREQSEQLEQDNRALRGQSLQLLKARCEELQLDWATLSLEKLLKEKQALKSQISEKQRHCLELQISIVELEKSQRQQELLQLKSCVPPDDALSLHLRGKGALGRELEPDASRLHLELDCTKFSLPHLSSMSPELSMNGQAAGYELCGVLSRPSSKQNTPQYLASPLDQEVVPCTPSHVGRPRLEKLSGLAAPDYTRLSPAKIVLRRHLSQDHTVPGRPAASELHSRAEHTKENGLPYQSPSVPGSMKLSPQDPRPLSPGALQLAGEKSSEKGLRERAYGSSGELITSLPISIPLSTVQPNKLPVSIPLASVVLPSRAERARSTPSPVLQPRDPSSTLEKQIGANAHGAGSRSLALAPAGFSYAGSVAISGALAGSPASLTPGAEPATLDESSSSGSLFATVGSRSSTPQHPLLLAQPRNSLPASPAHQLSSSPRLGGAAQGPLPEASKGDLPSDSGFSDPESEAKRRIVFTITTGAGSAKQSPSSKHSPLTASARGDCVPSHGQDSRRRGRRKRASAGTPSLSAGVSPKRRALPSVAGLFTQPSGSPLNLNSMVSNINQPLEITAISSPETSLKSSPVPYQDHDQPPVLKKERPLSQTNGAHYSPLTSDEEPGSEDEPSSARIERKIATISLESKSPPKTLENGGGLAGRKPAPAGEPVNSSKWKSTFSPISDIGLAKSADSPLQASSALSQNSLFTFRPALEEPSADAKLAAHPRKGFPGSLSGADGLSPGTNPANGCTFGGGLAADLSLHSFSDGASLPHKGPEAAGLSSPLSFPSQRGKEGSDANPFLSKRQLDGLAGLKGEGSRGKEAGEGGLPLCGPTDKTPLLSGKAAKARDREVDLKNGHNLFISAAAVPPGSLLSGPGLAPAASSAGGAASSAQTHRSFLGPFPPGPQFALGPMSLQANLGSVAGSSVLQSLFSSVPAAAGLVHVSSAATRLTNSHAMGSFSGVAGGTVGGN
pKd: −log10 of the molar value.
Recorded pKd, one value per entry.
ATTRIBUTE_MEASURED: pKd

>>> df
                               smiles_input    assay_system  recorded_measurement
0     COc1ccccc1-c1nnc2sc(/C=C/c3ccco3)nn12  UniProt Q8TEK3                  5.15
1  CN(C)c1ccc(-c2nnc3sc(/C=C/c4ccco4)nn23)cc1  UniProt Q8TEK3                  5.03
2     C(=C\c1nn2c(-c3ccncc3)nnc2s1)/c1ccco1  UniProt Q8TEK3                  5.13
3    Cc1cccc(-c2nnc3sc(/C=C/c4ccco4)nn23)c1  UniProt Q8TEK3                  5.92

---

Molecular target: Histone-lysine N-methyltransferase, H3 lysine-79 specific (Homo sapiens)
Test: Inhibition of recombinant human His6-SUMO tagged DOT1L (1 to 416 residues) expressed in Escherichia coli BL21(DE3) at 25 uM using oligonucleosome as substrate pretreated for 15 mins followed by substrate addition measured after 60 mins in presence of [3H]SAM by liquid scintillation counting method relative to control
Sequence (Q8TEK3 whole entry, looked up, the tested form may be a part): as the sequence (Q8TEK3 whole entry, the tested form may be a part) above
// bucketize inhibition: low end: < 40%; middle: ≥ 40% and < 60%; high end: ≥ 60%

>>> df
                                smiles_input                              assay_system  assigned_label
 0  C(=C\c1nn2c(-c3cc4ccccc4o3)nnc2s1)/c1ccco1  Histone-lysine N-methyltransferase, H3 lysine-79 specific (Homo sapiens)         low end
 1      C(=C\c1nn2c(N3CCOCC3)nnc2s1)/c1ccco1  Histone-lysine N-methyltransferase, H3 lysine-79 specific (Homo sapiens)          middle
 2    Cc1cccc(-c2nnc3sc(/C=C/c4ccco4)nn23)c1  Histone-lysine N-methyltransferase, H3 lysine-79 specific (Homo sapiens)        high end
 3     C(=C\c1nn2c(-c3ccncc3)nnc2s1)/c1ccco1  Histone-lysine N-methyltransferase, H3 lysine-79 specific (Homo sapiens)          middle
 4   c1ccc2c(Cc3nn4c(-c5ccoc5)nnc4s3)cccc2c1  Histone-lysine N-methyltransferase, H3 lysine-79 specific (Homo sapiens)          middle
 5  CN(C)c1ccc(-c2nnc3sc(/C=C/c4ccco4)nn23)cc1  Histone-lysine N-methyltransferase, H3 lysine-79 specific (Homo sapiens)          middle
 6   COc1cccc(-c2nnc3sc(/C=C/c4ccco4)nn23)c1  Histone-lysine N-methyltransferase, H3 lysine-79 specific (Homo sapiens)          middle
 7     C(=C\c1nn2c(-c3ccccc3)nnc2s1)/c1ccco1  Histone-lysine N-methyltransferase, H3 lysine-79 specific (Homo sapiens)        high end
 8     COc1ccccc1-c1nnc2sc(/C=C/c3ccco3)nn12  Histone-lysine N-methyltransferase, H3 lysine-79 specific (Homo sapiens)        high end
 9  COc1cc(-c2nnc3sc(/C=C/c4ccco4)nn23)cc(OC)c1OC  Histone-lysine N-methyltransferase, H3 lysine-79 specific (Homo sapiens)          middle
10  COc1ccccc1/C=C/c1nn2c(-c3ccc(N(C)C)cc3)nnc2s1  Histone-lysine N-methyltransferase, H3 lysine-79 specific (Homo sapiens)         low end

---

Biological target: Histone-lysine N-methyltransferase, H3 lysine-79 specific (Homo sapiens)
Assay: Inhibition of recombinant human His6-SUMO tagged DOT1L (1 to 416 residues) expressed in Escherichia coli BL21(DE3) at 100 uM using oligonucleosome as substrate pretreated for 15 mins followed by substrate addition measured after 60 mins in presence of [3H]SAM by liquid scintillation counting method relative to control
ATTRIBUTE_MEASURED: inhibition

In [3]: df
Out[3]:
                                smiles_input  recorded_measurement
 0    Fc1ccc(-c2nnc3sc(/C=C/c4ccco4)nn23)cc1                   40%
 1     C(=C\c1nn2c(-c3ccccc3)nnc2s1)/c1ccco1                   81%
 2         Cc1occc1-c1nnc2sc(CCc3ccccc3)nn12                   27%
 3     COc1ccccc1-c1nnc2sc(/C=C/c3ccco3)nn12                   78%
 4      Fc1cccc(-c2nnc3sc(CCc4ccccc4)nn23)c1                   50%
 5  COc1ccccc1/C=C/c1nn2c(-c3ccc(N(C)C)cc3)nnc2s1                   53%
 6     C(=C\c1nn2c(-c3ccncc3)nnc2s1)/c1ccco1                   82%
 7  CN(C)c1ccc(-c2nnc3sc(/C=C/c4ccco4)nn23)cc1                   73%
 8      C(=C\c1nn2c(C3CCCCC3)nnc2s1)/c1ccco1                   72%
 9          Cc1occc1-c1nnc2sc(Cc3ccccc3)nn12                   24%
10        Cc1occc1-c1nnc2sc(CCCc3ccccc3)nn12                   41%
11   COc1cccc(-c2nnc3sc(/C=C/c4ccco4)nn23)c1                   59%
12  C(=C\c1nn2c(-c3cc4ccccc4o3)nnc2s1)/c1ccco1                   88%
13    Cc1cccc(-c2nnc3sc(/C=C/c4ccco4)nn23)c1                   74%
14  COc1cc(-c2nnc3sc(/C=C/c4ccco4)nn23)cc(OC)c1OC                   60%
15      C(=C\c1nn2c(N3CCOCC3)nnc2s1)/c1ccco1                   65%
16    Fc1cccc(-c2nnc3sc(/C=C/c4ccco4)nn23)c1                   29%
17   c1ccc2c(Cc3nn4c(-c5ccoc5)nnc4s3)cccc2c1                   77%

---

Recorded inhibition, one value per entry.
Target: Histone-lysine N-methyltransferase, H3 lysine-79 specific (Homo sapiens)
Experiment: Inhibition of recombinant human His6-SUMO tagged DOT1L (1 to 416 residues) expressed in Escherichia coli BL21(DE3) at 50 uM using oligonucleosome as substrate pretreated for 15 mins followed by substrate addition measured after 60 mins in presence of [3H]SAM by liquid scintillation counting method relative to control
ATTRIBUTE_MEASURED: inhibition (%)

>>> df
                               smiles_input  recorded_measurement
0  CN(C)c1ccc(-c2nnc3sc(/C=C/c4ccco4)nn23)cc1                    60
1   COc1cccc(-c2nnc3sc(/C=C/c4ccco4)nn23)c1                    51
2  COc1ccccc1/C=C/c1nn2c(-c3ccc(N(C)C)cc3)nnc2s1                    53
3  C(=C\c1nn2c(-c3cc4ccccc4o3)nnc2s1)/c1ccco1                    71

---

Biological target: Histone-lysine N-methyltransferase, H3 lysine-79 specific (Homo sapiens, UniProt Q8TEK3)
Test: Inhibition of recombinant human His6-SUMO tagged DOT1L (1 to 416 residues) expressed in Escherichia coli BL21(DE3) at 50 uM using oligonucleosome as substrate pretreated for 15 mins followed by substrate addition measured after 60 mins in presence of [3H]SAM by liquid scintillation counting method relative to control
ATTRIBUTE_MEASURED: inhibition (%)

In [3]: df
Out[3]:
                              smiles_input  recorded_measurement
0    C(=C\c1nn2c(-c3ccccc3)nnc2s1)/c1ccco1                    79
1     C(=C\c1nn2c(C3CCCCC3)nnc2s1)/c1ccco1                    68
2   Fc1ccc(-c2nnc3sc(/C=C/c4ccco4)nn23)cc1                    44
3     C(=C\c1nn2c(N3CCOCC3)nnc2s1)/c1ccco1                    55
4  c1ccc2c(Cc3nn4c(-c5ccoc5)nnc4s3)cccc2c1                    59

All figures here come from ChEMBL document CHEMBL4219142.
